System: P388 leukemia ip, CD2F1 mice, survival T/C
Experiment: NCI In Vivo Anticancer Drug Screen. Data for tumor model P388 Leukemia (intraperitoneal) in CD2F1 (CDF1) mice
Conditions: endpoint: median survival time; dose: 50.0 mg/kg/injection; schedule: Q04DX003 (ip); vehicle: saline; higher = longer survival
Toxic doses and inconclusive results are not listed.
EXPERIMENTAL READOUT: T/C

In [3]: df
Out[3]:
                                   molecule  experimental_readout    endpoint_value
0  COCCOCCN1CCN(CCCN2c3ccccc3Sc3ccc(C(F)(F)F)cc32)CC1                   T/C  124 % of control
1  COc1cc2c[n+](C)c(-c3ccc(Cl)c(Cl)c3)c(OC)c2cc1OC                   T/C  100 % of control
2  CC([CH2][Sn]([CH3])([Cl])[c]1ccccc1)c1ccccc1 (stereo unspecified)                   T/C   94 % of control
3  C=CCC(O)CC1CC2CCCCN2O1 (stereo unspecified)                   T/C  104 % of control
4  CCSSC1(C)C(=O)N2CCCC2C(=O)N1C (stereo unspecified)                   T/C  103 % of control
5                                 C1=CCONC1                   T/C   93 % of control

====

Test system: P388 leukemia ip, CD2F1 mice, survival T/C
Assay: NCI In Vivo Anticancer Drug Screen. Data for tumor model P388 Leukemia (intraperitoneal) in CD2F1 (CDF1) mice
Conditions: endpoint: median survival time; dose: 400.0 mg/kg/injection; schedule: Q04DX003 (ip); vehicle: saline; higher = longer survival
Toxic doses and inconclusive results are not listed.
EXPERIMENTAL READOUT: T/C

>>> print(df.to_string())
                                   compound  experimental_readout    endpoint_value
0  COc1ccccc1C1NC(c2ccccc2OC)C2CCCC1C2=O (configuration not stated)                   T/C   90 % of control
1  O=C1c2ccccc2C(=O)N1CS(=O)(=O)CN1C(=O)c2ccccc2C1=O                   T/C   97 % of control
2  CCC1(C)COC(=O)C1=C(C(=O)OC)C(=O)OC (configuration not stated)                   T/C  105 % of control
3  Cn1c2nc(-[n+]3cccc(CO)c3)nc-2c([O-])n(C)c1=O                   T/C  103 % of control
4  CC(O)COCCOCCO (configuration not stated)                   T/C  104 % of control
5           CSc1ccc2c(=O)c(C(=O)O)c[nH]c2c1                   T/C  107 % of control
6                            CCOP(O)(=S)OCC                   T/C  101 % of control

====

System: P388 leukemia ip, CD2F1 mice, survival T/C
Assay: NCI In Vivo Anticancer Drug Screen. Data for tumor model P388 Leukemia (intraperitoneal) in CD2F1 (CDF1) mice
Conditions: endpoint: median survival time; dose: 100.0 mg/kg/injection; schedule: Q01DX009 (ip); vehicle: saline with Tween-80; higher = longer survival
Toxic doses and inconclusive results are not listed.
# Lookup of reported T/C keyed by entry
EXPERIMENTAL READOUT: T/C

>>> df
                                    compound    endpoint_value
 0  CC(=S)SC1(C)SC(C)(SC(C)=S)S1 (stereo not given)   94 % of control
 1        Cc1ccc(S(=O)(=O)NN=C2C3CCC2CC3)cc1  108 % of control
 2  CCC1(CCC(C)C)C(=O)N(CCCl)C(=O)N(CCCl)C1=O  105 % of control
 3     COc1ccc([Si](C)(C)CNCCSS(=O)(=O)O)cc1   95 % of control
 4   Clc1ccc(/C=N\N=C\c2ccc(Cl)c(Cl)c2)cc1Cl  110 % of control
 5      CCCc1c(C)nc2scc(-c3ccc(Cl)cc3)n2c1=O   98 % of control
 6            O=C(/C=C/c1ccc(Cl)cc1)c1ccccc1  103 % of control
 7  CCOC1OCN(c2ccccc2)CC1(C)C (stereo not given)  114 % of control
 8              CSC(Cl)=NC(=O)C(=O)N=C(Cl)SC   89 % of control
 9  N#CN1C2C=CC(c3ccccc3)NC21 (stereo not given)   96 % of control
10          Clc1nnc(-c2ccccc2)c(-c2ccccc2)n1  100 % of control
11  Sc1nc2ccccc2s1.Sc1nc2ccccc2s1.Sc1nc2ccccc2s1.Sc1nc2ccccc2s1.[Cl][Rh][Cl]  101 % of control
12  Cc1cc2c(c3ncccc13)OCN(Cc1ccc(Cl)c(Cl)c1)C2   98 % of control
13  Clc1ccc(Oc2ccc(N3C=Nc4ccc(Oc5ccc(Cl)cc5)cc4C3)cc2)cc1  110 % of control
14  COc1ccc(C2NC(=O)NC2=O)cc1 (stereo not given)   93 % of control
15  COc1ccc2c(c1)CSC(c1ccccc1)C2O (stereo not given)   93 % of control
16          Cc1ccccc1-c1nc2cc(Cl)ccc2c(=O)o1  110 % of control
17  COc1ccc(CCC(=O)O)c(C(CC(=O)O)C(=O)O)c1OS(=O)(=O)c1ccc(C)cc1 (stereo not given)  105 % of control
18  CC(=O)OC(C)N(C(C)=O)c1ncc([N+](=O)[O-])s1 (stereo not given)  106 % of control
19  CCCN1COC(OCCN(CC)CC)C(C)(C)C1 (stereo not given)  113 % of control
20                 CSc1ccc(N2C(=O)CSC2=O)cc1  114 % of control
21        Cc1ccc(S(=O)(=O)N(C=O)c2ccccc2)cc1   90 % of control
22                   S=C(NC1CCCCC1)NC1CCCCC1   90 % of control
23                       CC(=O)/C=C/c1ccccc1  108 % of control
24  CCN(CC)Cc1cc(N=Nc2ccc3c(c2)c2ccccc2n3CC)c2ccccc2c1O   93 % of control

====

# Lookup of reported T/C keyed by entry
Test system: P388 leukemia ip, CD2F1 mice, survival T/C
Experiment: NCI In Vivo Anticancer Drug Screen. Data for tumor model P388 Leukemia (intraperitoneal) in CD2F1 (CDF1) mice
Conditions: endpoint: median survival time; dose: 100.0 mg/kg/injection; schedule: Q01DX005 (ip); vehicle: saline with Tween-80; higher = longer survival
Inconclusive results and toxic doses are left out. Square brackets hold non-standard residues; d marks the D form. Peptide text beside a SMILES is read from it. * marks the point of attachment. ξ: configuration not given here. Cbz = O=C(OCc1ccccc1)*; ξV = CC(C)C(N)C(=O)O; Sar = CNCC(=O)O

MOLECULE	T/C
CCN(CC)C(=S)Cl	106 % of control
Oc1ccc(N=C2N=c3c(c4ccccc4c4ccccc34)=N2)c2ccccc12	100 % of control
CCOc1ccccc1N=Nc1c(-c2ccccc2)nn(C(N)=S)c1-c1ccccc1	108 % of control
S=c1cn[nH]c2ccc(S)cc12	99 % of control
COC(=O)C(Cc1ccccc1)NC(=O)C(Cc1cnc[nH]1)N(C(=O)OCc1ccccc1)C(=O)OCc1ccccc1 (centres undefined)	87 % of control
ClC(Cl)=C(Cl)Sc1ccccc1	105 % of control
O=C(NCCCC1NC(=O)/C(=C(O)/C=C/C2CCCCC2)C1=O)OCc1ccccc1 (centres undefined)	95 % of control
CN(C)c1ccc(/C=C2/SC(=S)NC2=O)cc1	87 % of control
C/C(=N\NC(=S)Nc1nccs1)c1ccc2ccccc2n1	100 % of control
O=C1NC(=O)C2(OC3c4ccccc4C=CN3C3=C2C(=O)CC3)C(=O)N1 (centres undefined)	91 % of control
CCN(CC)c1c(C)c(-c2ccccc2)oc(=O)c1Cl	100 % of control
ON1c2ccccc2-c2ccccc2C1(c1ccccc1)c1ccccc1	99 % of control
CN=C1NS(=O)(=O)c2ccccc21	108 % of control
CSC1=Nc2cc3c(cc2C(=O)N2CC(OC(C)=O)CC12)OCO3 (centres undefined)	99 % of control
COC1=CC2CCN3C=C(C#N)C(C#N)CC3C2C=C1OC (centres undefined)	111 % of control
Cc1cc2nc(CC(=O)c3cccnc3)c(CC(=O)c3cccnc3)nc2cc1C	91 % of control
O=c1[nH]c2nc(Cl)nc(Cl)c2[nH]1	94 % of control
Cc1cc(NS(=O)(=O)c2ccc(Nc3ccnc4cc(Cl)ccc34)cc2)no1	86 % of control
Cc1ccc2c(O)c3c(cc2c1O)C(=O)c1ccccc1C3=O	107 % of control
CCC(c1ccc(O)cc1)c1cc2c(cc1OCC(=O)OC)OCO2 (centres undefined)	93 % of control
CCOC(=O)C1CC1c1c(C)c2cc3[nH]c(cc4nc(cc5nc(cc1[nH]2)C(C)=C5CCC(=O)OC)C(CCC(=O)OC)=C4C)c(C)c3C1CC1C(=O)OCC (centres undefined)	86 % of control
CC(C)C(NC(=O)CN(C)C(=O)OCc1ccccc1)C(=O)O (centres undefined) (Cbz-[Sar]-[ξV]-OH)	102 % of control
CCN(CC)CCC(CNc1c(C)cnc2cc(Cl)ccc12)c1ccc(OC)cc1 (centres undefined)	105 % of control
CC1=NOC(=O)/C1=C/c1ccccc1C	104 % of control
CC(=O)c1ccn[nH]1	99 % of control
COc1ccc2c(c1N)CC[C@@H]1C2CC[C@]2(C)C(O)CCC12 (some centres undefined)	96 % of control
COc1ccc2[nH]c(=O)c(Br)c(C)c2c1	95 % of control
CC1=C(c2ccccc2)OC(=O)C(Cl)(Cl)C1N(c1ccccc1)c1ccccc1 (centres undefined)	93 % of control
COC1=CC(C(=O)O)C=C(OC)C1	104 % of control
